// provenance: patent US6737383B1

Each entry below carries its recorded Plant response rating, Giant foxtail.
test system: giant foxtail; test: Test B pre/postemergence giant foxtail; type: in vivo, Setaria faberii; details: Preemergence, Rate 250 g/ha; scale of 0 to 10 where 0 is no effect and 10 is complete control

- compound: "COc1ccc(-n2c(=O)on(C(=O)N(c3ccc(F)cc3)C(C)C)c2=O)c(C)c1"
  Plant response rating, Giant foxtail: 10
- compound: "Cc1ccccc1-n1c(=O)on(C(=O)N(c2ccc(Cl)cc2)C(C)C)c1=O"
  Plant response rating, Giant foxtail: 10
- compound: "Cc1ccccc1-n1c(=O)on(C(=O)N(c2ccc(F)cc2)C(C)C)c1=O"
  Plant response rating, Giant foxtail: 10
- compound: "CCN(C(=O)n1oc(=O)n(-c2c(C)cc(C)cc2C)c1=O)C1CCCCC1"
  Plant response rating, Giant foxtail: 2
- compound: "Cc1cccc(C)c1-n1c(=O)on(C(=O)N(c2ccccc2)C(C)C)c1=O"
  Plant response rating, Giant foxtail: 10
- compound: "CCc1ccccc1-n1c(=O)on(C(=O)N(c2ccc(F)cc2F)C(C)C)c1=O"
  Plant response rating, Giant foxtail: 10
- compound: "C=CCn1c(=O)on(C(=O)N(c2ccccc2)C(C)C)c1=O"
  Plant response rating, Giant foxtail: 10
- compound: "CC(C)N(C(=O)n1oc(=O)n(C2CCCCC2C(F)(F)F)c1=O)c1ccc(F)cc1 (stereo not drawn)"
  Plant response rating, Giant foxtail: 10
- compound: "CC(C)N(C(=O)n1oc(=O)n(Cc2cccs2)c1=O)c1ccc(F)cc1"
  Plant response rating, Giant foxtail: 8
